molecular target: GST-Atrophin-1 Interacting Protein PDZ domain 3 (Rattus norvegicus (Rat)), O88382; test: G assay titration, PDZ 5 ug/ml
Sequence (O88382 774-865, tags or fused parts left off): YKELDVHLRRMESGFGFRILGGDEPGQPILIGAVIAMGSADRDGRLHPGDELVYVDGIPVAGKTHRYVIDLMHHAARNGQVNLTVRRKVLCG
test.readout: Kd

- VGTLLLERVIFPSVKIATLV (modifications not checked) [AdenoE4 typ9]: 100 nM
